# PROCEDURE DETAILS: qHTS assay to identify small molecule antagonists of the androgen receptor (AR) signaling pathway using the MDA cell line in the presence of 0.5 nM R1881 - cell viability counter screen (AID 1259242); note: % is set by controls: 0 for no effect and ±100 for the full control effect; nearly all actives have a fitted effect of over 45% in size
# MEASUREMENT CONTEXT: MDA-kb2 viability, CellTiter-Fluor protease fluorescence, 16 h; series mostly up to 92.4 µM
Results filed as inconclusive are left out. Activity calls are given as the source filed them. Calls come from the whole dose curve; as a rule, active = well fitted cell-killing curve with a large enough effect in the repeat runs; inconclusive = weak or mixed curves, or effect the other way; inactive = flat fitted curve, though single readings scatter.

MOLECULE: CC(=O)c1ccc2c(c1)CCCC2
viability change, negative = cytotoxic: inactive
//
MOLECULE: CC(C)(C)NCCO
viability change, negative = cytotoxic: inactive
//
MOLECULE: NC(=O)NC(=O)Cc1ccccc1
viability change, negative = cytotoxic: inactive
//
MOLECULE: CC(Cl)COP(=O)(OCC(C)Cl)OCC(C)Cl (centres undefined)
viability change, negative = cytotoxic: inactive
//
MOLECULE: Nc1nc(=O)n([C@@H]2O[C@H](CO)[C@@H](O)[C@@H]2F)cc1I
viability change, negative = cytotoxic: inactive
//
MOLECULE: CN(C)CCOCCN(C)CCO
viability change, negative = cytotoxic: inactive
//
MOLECULE: C=CCOc1c(Br)cc(Br)cc1Br
viability change, negative = cytotoxic: inactive
//
MOLECULE: O=C(CN1CCN(Cc2ccc3c(c2)OCO3)CC1)N1c2ccccc2Sc2ccccc21
viability change, negative = cytotoxic: inactive
//
MOLECULE: O=C1NC2NC(=O)NC2N1 (centres undefined)
viability change, negative = cytotoxic: inactive
//
MOLECULE: CCCO
viability change, negative = cytotoxic: inactive
//
MOLECULE: Cc1nc(C)nc(N2C[C@@H](C)N(c3ccnc([C@@H](C)O)n3)[C@@H](C)C2)n1
viability change, negative = cytotoxic: inactive
//
MOLECULE: O=c1[nH]c(=O)c2[nH]c(=O)[nH]c2[nH]1
viability change, negative = cytotoxic: -0.67% [at 8.39 µM] (inactive)
//
MOLECULE: SCCSCCS
viability change, negative = cytotoxic: inactive
//
MOLECULE: CN(C)CCCNCCC#N
viability change, negative = cytotoxic: inactive

====

# PROCEDURE DETAILS: qHTS assay for identifying genotoxic compounds that show differential cytotoxicity against isogenic chicken DT40 cell lines with known DNA damage response pathways - Rad54/Ku70 mutant cell line (AID 743015); note: % is set by controls: 0 for no effect and ±100 for the full control effect; nearly all actives have a fitted effect of over 60% in size
# MEASUREMENT CONTEXT: DT40 Rad54/Ku70 mutant viability, CellTiter-Glo, 40 h; series mostly up to 66.8 µM
Results filed as inconclusive are left out. The source made the active and inactive calls. Calls follow the shape of the dose curve; as a rule, active = well fitted cell-killing curve with a large enough effect in the repeat runs; inconclusive = weak or mixed curves; inactive = no such curve, though single readings can be large or run the other way.

COMPOUND: C[C@H](CCC(=O)O)[C@H]1CC[C@H]2[C@@H]3[C@H](O)C[C@@H]4C[C@H](O)CC[C@]4(C)[C@H]3C[C@H](O)[C@]12C
outcome: inactive
--
COMPOUND: Cc1ncc([N+](=O)[O-])n1CC(O)CCl (stereo not drawn)
outcome: inactive
--
COMPOUND: Cn1c(=O)c2c(ncn2CC2OCCO2)n(C)c1=O
outcome: inactive
--
COMPOUND: C=CCOc1c(Br)cc(Br)cc1Br
outcome: inactive
--
COMPOUND: NC(=O)NNC(N)=O
outcome: inactive
--
COMPOUND: CO[Si](CCCCl)(OC)OC
outcome: inactive
--
COMPOUND: C=CCOCC(CO)(COCC=C)COCC=C
outcome: inactive
--
COMPOUND: O=P(O)(O)OCC(O)CO (stereo not drawn)
outcome: inactive

====

# TARGET OR SYSTEM: Aryl hydrocarbon receptor (Homo sapiens) (UniProt P35869)
# Sequence (P35869 whole entry, looked up): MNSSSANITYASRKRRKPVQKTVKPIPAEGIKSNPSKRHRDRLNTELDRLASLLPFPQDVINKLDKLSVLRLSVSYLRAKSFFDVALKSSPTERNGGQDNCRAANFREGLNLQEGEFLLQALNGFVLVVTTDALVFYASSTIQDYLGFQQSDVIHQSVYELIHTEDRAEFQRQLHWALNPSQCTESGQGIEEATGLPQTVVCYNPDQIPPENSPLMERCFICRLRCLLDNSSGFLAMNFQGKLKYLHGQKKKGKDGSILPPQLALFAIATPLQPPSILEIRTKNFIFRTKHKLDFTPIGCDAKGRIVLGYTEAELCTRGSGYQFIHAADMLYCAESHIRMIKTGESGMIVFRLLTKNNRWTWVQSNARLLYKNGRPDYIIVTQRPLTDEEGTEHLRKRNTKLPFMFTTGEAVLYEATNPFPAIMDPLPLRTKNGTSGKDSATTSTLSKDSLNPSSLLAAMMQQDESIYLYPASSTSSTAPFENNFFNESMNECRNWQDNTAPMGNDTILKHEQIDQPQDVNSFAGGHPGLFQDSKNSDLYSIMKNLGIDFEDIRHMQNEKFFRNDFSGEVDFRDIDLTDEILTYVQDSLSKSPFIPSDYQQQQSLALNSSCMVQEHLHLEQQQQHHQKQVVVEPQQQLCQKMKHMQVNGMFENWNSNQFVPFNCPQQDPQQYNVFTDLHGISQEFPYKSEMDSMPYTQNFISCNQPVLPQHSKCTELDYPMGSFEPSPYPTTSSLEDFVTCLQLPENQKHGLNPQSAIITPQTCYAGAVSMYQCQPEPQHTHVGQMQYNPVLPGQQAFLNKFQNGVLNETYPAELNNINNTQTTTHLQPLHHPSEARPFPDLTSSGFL
# PROCEDURE DETAILS: qHTS assay to identify small molecule that activate the aryl hydrocarbon receptor (AhR) signaling pathway (AID 743085); note: nearly all actives have a fitted effect of over 15% in size;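 for activation: HG2L7.5c1 human HepG2 liver cells with stably integrated DRE-driven firefly reporter; % is set by controls: 0 for no effect and ±100 for the full control effect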
# MEASUREMENT CONTEXT: HepG2 AhR-luc (HG2L7.5c1), luciferase, 24 h; series mostly up to 70.3 µM
Results filed as inconclusive are left out. The source made the active and inactive calls. The call rests on the fitted dose curve; in most records, active means well fitted activation curve with a large enough effect in the repeat runs; inconclusive means weak or mixed curves; inactive means no such curve, though single readings can be large or run the other way.
Labels: active, inactive

COMPOUND: CCc1nccnc1C
TARGET OR SYSTEM: Aryl hydrocarbon receptor (Homo sapiens) (UniProt P35869)
ASSIGNED CATEGORY: inactive

COMPOUND: Cc1cccc(C(=O)O)c1[N+](=O)[O-]
TARGET OR SYSTEM: Aryl hydrocarbon receptor (Homo sapiens) (UniProt P35869)
ASSIGNED CATEGORY: inactive

COMPOUND: FC(F)(F)/C(=N\OCC1OCCO1)c1ccc(Cl)cc1
TARGET OR SYSTEM: Aryl hydrocarbon receptor (Homo sapiens) (UniProt P35869)
ASSIGNED CATEGORY: inactive

COMPOUND: CCCCC(CC)COC(=O)c1ccccc1 (stereo not given)
TARGET OR SYSTEM: Aryl hydrocarbon receptor (Homo sapiens) (UniProt P35869)
ASSIGNED CATEGORY: inactive

COMPOUND: C[C@H]1O[C@H](O[C@H]2[C@H](O)[C@@H](O)[C@@H](O[C@H]3[C@H](O)[C@@H](O)[C@H](O)O[C@@H]3CO)O[C@@H]2CO)[C@H](O)[C@@H](O)[C@@H]1N[C@H]1C=C(CO)[C@@H](O)[C@H](O)[C@H]1O
TARGET OR SYSTEM: Aryl hydrocarbon receptor (Homo sapiens) (UniProt P35869)
ASSIGNED CATEGORY: inactive

COMPOUND: O=C(Oc1ccccc1C(=O)O)c1ccccc1O
TARGET OR SYSTEM: Aryl hydrocarbon receptor (Homo sapiens) (UniProt P35869)
ASSIGNED CATEGORY: inactive

COMPOUND: CC(=O)Nc1ccc(C)cc1
TARGET OR SYSTEM: Aryl hydrocarbon receptor (Homo sapiens) (UniProt P35869)
ASSIGNED CATEGORY: inactive

COMPOUND: Cc1ccccc1C(=O)N1CC/C(=N\OS(=O)(=O)O)c2ccc(Cl)cc21
TARGET OR SYSTEM: Aryl hydrocarbon receptor (Homo sapiens) (UniProt P35869)
ASSIGNED CATEGORY: inactive

COMPOUND: Cc1cccc(Nc2ccncc2S(=O)(=O)NC(=O)NC(C)C)c1
TARGET OR SYSTEM: Aryl hydrocarbon receptor (Homo sapiens) (UniProt P35869)
ASSIGNED CATEGORY: inactive

COMPOUND: CCOC(=O)CCc1ccccc1
TARGET OR SYSTEM: Aryl hydrocarbon receptor (Homo sapiens) (UniProt P35869)
ASSIGNED CATEGORY: inactive

COMPOUND: Cc1cc(C)cc([N+](=O)[O-])c1
TARGET OR SYSTEM: Aryl hydrocarbon receptor (Homo sapiens) (UniProt P35869)
ASSIGNED CATEGORY: inactive

COMPOUND: NC(=O)NC(=O)Cc1ccccc1
TARGET OR SYSTEM: Aryl hydrocarbon receptor (Homo sapiens) (UniProt P35869)
ASSIGNED CATEGORY: inactive

COMPOUND: CCCCC(CC)C(=O)OC(C)C (stereo not given)
TARGET OR SYSTEM: Aryl hydrocarbon receptor (Homo sapiens) (UniProt P35869)
ASSIGNED CATEGORY: inactive

COMPOUND: CN(C)CCOCCN(C)CCO
TARGET OR SYSTEM: Aryl hydrocarbon receptor (Homo sapiens) (UniProt P35869)
ASSIGNED CATEGORY: inactive

COMPOUND: CCCCC[Si](OCC)(OCC)OCC
TARGET OR SYSTEM: Aryl hydrocarbon receptor (Homo sapiens) (UniProt P35869)
ASSIGNED CATEGORY: inactive

COMPOUND: O=C(Nc1cccc(C2=NCCN2)c1)Nc1cccc(C2=NCCN2)c1
TARGET OR SYSTEM: Aryl hydrocarbon receptor (Homo sapiens) (UniProt P35869)
ASSIGNED CATEGORY: inactive

COMPOUND: Cc1ccc2c(c1)c1c3n2CCNC3CCC1 (stereo not given)
TARGET OR SYSTEM: Aryl hydrocarbon receptor (Homo sapiens) (UniProt P35869)
ASSIGNED CATEGORY: active

COMPOUND: Cc1ccccc1OCC1CO1 (stereo not given)
TARGET OR SYSTEM: Aryl hydrocarbon receptor (Homo sapiens) (UniProt P35869)
ASSIGNED CATEGORY: inactive

COMPOUND: CN(C)CCCNCCC#N
TARGET OR SYSTEM: Aryl hydrocarbon receptor (Homo sapiens) (UniProt P35869)
ASSIGNED CATEGORY: inactive

COMPOUND: C=C(C)C(=O)OC1CC(C)CC(C)(C)C1 (stereo not given)
TARGET OR SYSTEM: Aryl hydrocarbon receptor (Homo sapiens) (UniProt P35869)
ASSIGNED CATEGORY: inactive

COMPOUND: CO[Si](CCCS)(OC)OC
TARGET OR SYSTEM: Aryl hydrocarbon receptor (Homo sapiens) (UniProt P35869)
ASSIGNED CATEGORY: inactive

COMPOUND: NS(=O)(=O)c1ccc(Cl)c(S(N)(=O)=O)c1
TARGET OR SYSTEM: Aryl hydrocarbon receptor (Homo sapiens) (UniProt P35869)
ASSIGNED CATEGORY: inactive

COMPOUND: Cc1oc(=O)oc1CN1CCN(c2cc3c(cc2F)c(=O)c(C(=O)O)c2n3C(C)S2)CC1 (stereo not given)
TARGET OR SYSTEM: Aryl hydrocarbon receptor (Homo sapiens) (UniProt P35869)
ASSIGNED CATEGORY: inactive

COMPOUND: CC(C)COC(=O)COc1ccc(Cl)cc1Cl
TARGET OR SYSTEM: Aryl hydrocarbon receptor (Homo sapiens) (UniProt P35869)
ASSIGNED CATEGORY: inactive

COMPOUND: COc1cc2c3cc1Oc1cc(ccc1O)C[C@@H]1c4c(cc(OC)c(O)c4Oc4ccc(cc4)C[C@@H]3N(C)CC2)CC[N+]1(C)C
TARGET OR SYSTEM: Aryl hydrocarbon receptor (Homo sapiens) (UniProt P35869)
ASSIGNED CATEGORY: inactive
